System tested: Stimulator of interferon genes protein (Homo sapiens, UniProt Q86WV6)
Sequence (Q86WV6 whole entry): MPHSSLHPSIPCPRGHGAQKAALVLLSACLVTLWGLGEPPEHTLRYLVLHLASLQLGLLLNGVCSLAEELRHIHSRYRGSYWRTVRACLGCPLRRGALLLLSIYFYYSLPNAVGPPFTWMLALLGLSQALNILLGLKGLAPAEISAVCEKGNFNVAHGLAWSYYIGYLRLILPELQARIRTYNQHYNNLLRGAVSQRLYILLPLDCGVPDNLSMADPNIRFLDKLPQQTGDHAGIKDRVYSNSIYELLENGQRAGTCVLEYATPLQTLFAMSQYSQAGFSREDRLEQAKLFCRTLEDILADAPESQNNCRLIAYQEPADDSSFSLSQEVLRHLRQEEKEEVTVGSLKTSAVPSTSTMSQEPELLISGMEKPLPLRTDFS
Protocol text: Agonist activity at STING in human THP1-Dual cells incubated for 20 hrs by Quanti-luc reagent based assay
Type: cell-based
Metric name: EC50

Example cases with answers are listed next.
Molecule: CCn1nc(C)cc1C(=O)Nc1nc2cc(C(N)=O)cc(OC)c2n1Cc1cn(CCc2ccccc2)nn1
System tested: Stimulator of interferon genes protein (Homo sapiens, UniProt Q86WV6)
Data value: > 100 µM
//
Molecule: CCn1nc(C)cc1C(=O)Nc1nc2cc(C(N)=O)cc(OC)c2n1C/C=C/CNC(=O)c1ccccc1
System tested: Stimulator of interferon genes protein (Homo sapiens, UniProt Q86WV6)
Data value: 47.1 µM
//
Molecule: CCn1nc(C)cc1C(=O)Nc1nc2cc(C(N)=O)cc(OC)c2n1CCCN1CCN(Cc2ccc3ccccc3c2)C(=O)C1
System tested: Stimulator of interferon genes protein (Homo sapiens, UniProt Q86WV6)
Data value: > 100 µM
//
Molecule: CCn1nc(C)cc1C(=O)Nc1nc2cc(C(N)=O)cc(OC)c2n1CCCN1CCC(C(=O)Nc2ccccc2)CC1
System tested: Stimulator of interferon genes protein (Homo sapiens, UniProt Q86WV6)
Data value: > 100 µM
//
Molecule: CCn1nc(C)cc1C(=O)Nc1nc2cc(C(N)=O)cc(OC)c2n1Cc1cn(Cc2ccc3ccccc3c2)nn1
System tested: Stimulator of interferon genes protein (Homo sapiens, UniProt Q86WV6)
Data value: > 100 µM

Hey, quick one: what's EC50 for each of these?
1. CCn1nc(C)cc1C(=O)Nc1nc2cc(C(N)=O)cc(OC)c2n1CCCNC(=O)c1ccc(-c2ccccc2)cc1
2. CCn1nc(C)cc1C(=O)Nc1nc2cc(C(N)=O)cc(OC)c2n1C/C=C/CNC(=O)c1ccc(F)cc1
3. CCn1nc(C)cc1C(=O)Nc1nc2cc(C(N)=O)cc(OC)c2n1NCCCC(=O)N(C)Cc1ccccc1
4. CCn1nc(C)cc1C(=O)Nc1nc2cc(C(N)=O)cc(OC)c2n1NCCCNC(=O)Nc1ccc2ccccc2c1
5. CCn1nc(C)cc1C(=O)Nc1nc2cc(C(N)=O)cc(OC)c2n1C/C=C/CNC(=O)c1ccc2ccccc2c1
6. CCn1nc(C)cc1C(=O)Nc1nc2cc(C(N)=O)cc(OC)c2n1C/C=C/CNC(=O)c1cnccn1
7. CCn1nc(C)cc1C(=O)Nc1nc2cc(C(N)=O)cc(OC)c2n1C/C=C/CNc1ncc(C(N)=O)cn1

Key:
> 100 µM
> 100 µM
11.2 µM
> 100 µM
> 100 µM
> 100 µM
> 100 µM

Provide the reported EC50 of each entry below, same order.
1. CCn1nc(C)cc1C(=O)Nc1nc2cc(C(N)=O)cc(OC)c2n1C/C=C/CNC(=O)c1cc(C(F)(F)F)cc(C(F)(F)F)c1
2. CCn1nc(C)cc1C(=O)Nc1nc2cc(C(N)=O)cc(OC)c2n1NCCCC(=O)NCc1ccc(C(F)(F)F)cc1
3. CCn1nc(C)cc1C(=O)Nc1nc2cc(C(N)=O)cc(OC)c2n1NCCCC(=O)NCc1ccc(F)cc1
4. CCn1nc(C)cc1C(=O)Nc1nc2cc(C(N)=O)cc(OC)c2n1CCCN1CCC(NC(=O)c2ccc3ccccc3c2)CC1

Key:
["> 100 µM", "13 µM", "1.58 µM", "> 100 µM"]

These measurements were taken from ChEMBL document CHEMBL5331071.
